Assay: Cytotoxicity against L929 cells, MTT cell viability assay (ISO 10993-5:2009(E))
Type: cell-based
Conditions: mouse, L929 mouse fibroblast cells, 50% cell proliferation inhibition, L929 cells
// CC50 at 24 h lookup, one value per entry
# output: bare number, implied unit µg/mL

Cc1nc[nH]c1C(=O)NNC(=S)Nc1ccccc1Br :: 495
Cc1nc[nH]c1C(=O)NNC(=S)Nc1ccccc1F :: 455
Cc1nc[nH]c1C(=O)NNC(=S)Nc1cccc(I)c1 :: 197
Cc1nc[nH]c1C(=O)NNC(=S)Nc1ccc(Br)cc1 :: 224
Cc1nc[nH]c1C(=O)NNC(=S)Nc1ccccc1Cl :: 630

Value lookup for CC50 at 24 h; key = Cc1nc[nH]c1C(=O)NNC(=S)Nc1ccc(F)cc1
977

// repeat for Cc1nc[nH]c1C(=O)NNC(=S)Nc1cccc(Cl)c1 and report
273

// repeat for Cc1nc[nH]c1C(=O)NNC(=S)Nc1cccc(Br)c1 and report
238

// repeat for Cc1nc[nH]c1C(=O)NNC(=S)Nc1ccccc1I and report
199

// repeat for Cc1nc[nH]c1C(=O)NNC(=S)Nc1cccc(F)c1 and report
885

// repeat for Cc1nc[nH]c1C(=O)NNC(=S)Nc1ccc(Cl)cc1 and report
231

// repeat for Cc1nc[nH]c1C(=O)NNC(=S)Nc1ccc(I)cc1 and report
195

---

Assay: Cytotoxicity against L929 cells, MTT cell viability assay (ISO 10993-5:2009(E))
Assay type: cell-based
Conditions: mouse, L929 mouse fibroblast cells, 125.00 µg/mL, read-out: viability of L929 cells (% of viable cells)
// viability at 24 h, 125 µg/mL lookup, one value per entry
# output: bare number, implied unit %

Consider the following illustrative entries.
Cc1nc[nH]c1C(=O)NNC(=S)Nc1cccc(I)c1 :: 66.2
Cc1nc[nH]c1C(=O)NNC(=S)Nc1ccc(Cl)cc1 :: 63.6
Cc1nc[nH]c1C(=O)NNC(=S)Nc1ccccc1Cl :: 69.4
Cc1nc[nH]c1C(=O)NNC(=S)Nc1ccccc1I :: 65.4
Cc1nc[nH]c1C(=O)NNC(=S)Nc1ccccc1F :: 87
Cc1nc[nH]c1C(=O)NNC(=S)Nc1cccc(Cl)c1 :: 64.7

Now take the following molecule into account.
Value lookup for viability at 24 h, 125 µg/mL; key = Cc1nc[nH]c1C(=O)NNC(=S)Nc1ccc(F)cc1
83.1

---

// viability at 24 h, 125 µg/mL lookup, one value per entry
Experiment: Cytotoxicity against L929 cells, MTT cell viability assay (ISO 10993-5:2009(E))
Assay type: cell-based
Conditions: mouse, L929 mouse fibroblast cells, 125.00 µg/mL, read-out: viability of L929 cells (% of viable cells)
# output: bare number, implied unit %

Consider the following illustrative entries.
Cc1nc[nH]c1C(=O)NNC(=S)Nc1ccc(I)cc1 :: 68.1
Cc1nc[nH]c1C(=O)NNC(=S)Nc1cccc(F)c1 :: 64.8
Cc1nc[nH]c1C(=O)NNC(=S)Nc1cccc(Br)c1 :: 65.7
Cc1nc[nH]c1C(=O)NNC(=S)Nc1ccccc1Br :: 76.3

Now take the following molecule into account.
Value lookup for viability at 24 h, 125 µg/mL; key = Cc1nc[nH]c1C(=O)NNC(=S)Nc1ccc(Br)cc1
56.6

---

Assay: Cytotoxicity against L929 cells, MTT cell viability assay (ISO 10993-5:2009(E))
Format: cell-based
Settings: mouse, L929 mouse fibroblast cells, 50.00 µg/mL, read-out: viability of L929 cells (% of viable cells)
Excerpt: Since T. gondii is an obligate intracellular parasite that requires invasion of mammalian host cells to proliferate, compounds that inhibit parasite growth might be toxic to host cells as well. Therefore, as an initial indicator for host cell toxicity, we firstly evaluated compounds 5–16 for their ability to inhibit the growth of mouse fibroblast (L929) cells line according to the international standards: ISO 10993-5:2009(E). […]
value type: viability at 24 h, 50 µg/mL (%)
# output: bare number, implied unit %

Consider the following illustrative entries.
Cc1nc[nH]c1C(=O)NNC(=S)Nc1cccc(Cl)c1 :: 75.3
Cc1nc[nH]c1C(=O)NNC(=S)Nc1cccc(F)c1 :: 75.4
Cc1nc[nH]c1C(=O)NNC(=S)Nc1ccccc1F :: 74.8
Cc1nc[nH]c1C(=O)NNC(=S)Nc1ccc(F)cc1 :: 89.2
Cc1nc[nH]c1C(=O)NNC(=S)Nc1cccc(I)c1 :: 70.8

Value lookup for viability at 24 h, 50 µg/mL; key = Cc1nc[nH]c1C(=O)NNC(=S)Nc1ccc(Cl)cc1
70.3

// repeat for Cc1nc[nH]c1C(=O)NNC(=S)Nc1ccccc1I and report
83.7

// repeat for Cc1nc[nH]c1C(=O)NNC(=S)Nc1ccc(Br)cc1 and report
64.1

// repeat for Cc1nc[nH]c1C(=O)NNC(=S)Nc1ccccc1Br and report
87.5

// repeat for Cc1nc[nH]c1C(=O)NNC(=S)Nc1ccccc1Cl and report
78.5

// repeat for Cc1nc[nH]c1C(=O)NNC(=S)Nc1ccc(I)cc1 and report
66.2

// repeat for Cc1nc[nH]c1C(=O)NNC(=S)Nc1cccc(Br)c1 and report
74.4

---

// viability at 24 h, 500 µg/mL lookup, one value per entry
Test: Cytotoxicity against L929 cells, MTT cell viability assay (ISO 10993-5:2009(E))
Type: cell-based
Settings: mouse, L929 mouse fibroblast cells, 500.00 µg/mL, read-out: viability of L929 cells (% of viable cells)
# output: bare number, implied unit %

Consider the following illustrative entries.
Cc1nc[nH]c1C(=O)NNC(=S)Nc1cccc(Br)c1 :: 20.2
Cc1nc[nH]c1C(=O)NNC(=S)Nc1cccc(F)c1 :: 52.3
Cc1nc[nH]c1C(=O)NNC(=S)Nc1ccccc1I :: 26.1
Cc1nc[nH]c1C(=O)NNC(=S)Nc1ccc(Cl)cc1 :: 23.6
Cc1nc[nH]c1C(=O)NNC(=S)Nc1ccccc1Cl :: 57.1
Cc1nc[nH]c1C(=O)NNC(=S)Nc1ccc(F)cc1 :: 61.4

Value lookup for viability at 24 h, 500 µg/mL; key = Cc1nc[nH]c1C(=O)NNC(=S)Nc1ccccc1F
64.1

---

Assay: Cytotoxicity against L929 cells, MTT cell viability assay (ISO 10993-5:2009(E))
Type: cell-based
Conditions: mouse, L929 mouse fibroblast cells, 250.00 µg/mL, read-out: viability of L929 cells (% of viable cells)
value type: viability at 24 h, 250 µg/mL (%)
# output: bare number, implied unit %

Consider the following illustrative entries.
Cc1nc[nH]c1C(=O)NNC(=S)Nc1cccc(F)c1 [Compound 6] :: 62.4
Cc1nc[nH]c1C(=O)NNC(=S)Nc1ccc(Br)cc1 [Compound 13] :: 51.1
Cc1nc[nH]c1C(=O)NNC(=S)Nc1ccc(I)cc1 [Compound 16] :: 49.9
Cc1nc[nH]c1C(=O)NNC(=S)Nc1cccc(Br)c1 [Compound 12] :: 56.8
Cc1nc[nH]c1C(=O)NNC(=S)Nc1ccccc1Cl [Compound 8] :: 64.8
Cc1nc[nH]c1C(=O)NNC(=S)Nc1ccc(Cl)cc1 [Compound 10] :: 56.6
Cc1nc[nH]c1C(=O)NNC(=S)Nc1ccccc1I [Compound 14] :: 44.5
Cc1nc[nH]c1C(=O)NNC(=S)Nc1cccc(Cl)c1 [Compound 9] :: 56.7
Cc1nc[nH]c1C(=O)NNC(=S)Nc1ccccc1F [Compound 5] :: 69.3
Cc1nc[nH]c1C(=O)NNC(=S)Nc1ccc(F)cc1 [Compound 7] :: 69.9

Value lookup for viability at 24 h, 250 µg/mL; key = Cc1nc[nH]c1C(=O)NNC(=S)Nc1ccccc1Br [Compound 11]
70

// repeat for Cc1nc[nH]c1C(=O)NNC(=S)Nc1cccc(I)c1 [Compound 15] and report
54

---

Test: Cytotoxicity against L929 cells, MTT cell viability assay (ISO 10993-5:2009(E))
Type: cell-based
Conditions: mouse, L929 mouse fibroblast cells, 25.00 µg/mL, read-out: viability of L929 cells (% of viable cells)
// viability at 24 h, 25 µg/mL lookup, one value per entry
# output: bare number, implied unit %

Consider the following illustrative entries.
Cc1nc[nH]c1C(=O)NNC(=S)Nc1ccccc1Br :: 93
Cc1nc[nH]c1C(=O)NNC(=S)Nc1cccc(I)c1 :: 87.3
Cc1nc[nH]c1C(=O)NNC(=S)Nc1ccc(Br)cc1 :: 82
Cc1nc[nH]c1C(=O)NNC(=S)Nc1cccc(Cl)c1 :: 88.5
Cc1nc[nH]c1C(=O)NNC(=S)Nc1ccc(Cl)cc1 :: 96.3

Value lookup for viability at 24 h, 25 µg/mL; key = Cc1nc[nH]c1C(=O)NNC(=S)Nc1ccccc1I
92.8

// repeat for Cc1nc[nH]c1C(=O)NNC(=S)Nc1ccccc1F and report
97.3

These measurements were taken from paper PMC6514996.
